Biological target: human RXFP1 (Homo sapiens, UniProt Q9HBX9)
Sequence (Q9HBX9 whole entry): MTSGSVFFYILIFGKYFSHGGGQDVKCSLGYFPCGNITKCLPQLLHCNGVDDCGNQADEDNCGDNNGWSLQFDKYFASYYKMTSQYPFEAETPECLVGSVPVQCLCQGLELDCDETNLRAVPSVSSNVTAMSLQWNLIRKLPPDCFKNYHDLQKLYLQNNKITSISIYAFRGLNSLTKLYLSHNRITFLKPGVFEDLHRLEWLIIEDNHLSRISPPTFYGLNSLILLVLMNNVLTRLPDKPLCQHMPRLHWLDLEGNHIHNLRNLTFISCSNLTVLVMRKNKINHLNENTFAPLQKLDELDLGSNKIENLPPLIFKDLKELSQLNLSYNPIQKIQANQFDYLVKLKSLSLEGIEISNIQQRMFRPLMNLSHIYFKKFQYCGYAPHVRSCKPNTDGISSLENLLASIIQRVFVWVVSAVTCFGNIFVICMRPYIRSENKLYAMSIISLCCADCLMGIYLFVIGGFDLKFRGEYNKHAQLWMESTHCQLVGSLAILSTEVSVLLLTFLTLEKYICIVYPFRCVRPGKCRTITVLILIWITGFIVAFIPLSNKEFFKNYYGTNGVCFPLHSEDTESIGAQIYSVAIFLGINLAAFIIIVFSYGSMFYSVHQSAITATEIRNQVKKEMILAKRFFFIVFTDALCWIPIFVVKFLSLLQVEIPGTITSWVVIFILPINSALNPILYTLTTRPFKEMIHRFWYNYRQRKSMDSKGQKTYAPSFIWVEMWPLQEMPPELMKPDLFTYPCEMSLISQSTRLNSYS
Assay: RXFP1 Hu cAMP (Test A)
Format: cell-based
Set-up: expressed in transfected cells; host or cells: Jump-In T-REx CHO-K1 cells (ThermoFisher), induced with 10 ng/ml doxycycline for 24 h
Details: RXFP1 Hu cAMP; read-out: Test A EC50
readout.label: pEC50
Please express pEC50 as -log10 of the molar concentration.

Input line: Please report pEC50 with human RXFP1 (Homo sapiens, UniProt Q9HBX9) for item COc1cc(F)c(OC2CCC(O)(C(=O)O)CC2)cc1C(=O)N[C@@H]1[C@@H]2CC[C@@H](C2)[C@@H]1C(=O)Nc1cccc(S(=O)(=O)C(F)(F)F)c1 (relative stereo) .
Output line: 6.46

Input line: System human RXFP1 (Homo sapiens, UniProt Q9HBX9). Read-out pEC50. Item COc1cc(F)c(-c2ccc(OCCCC(=O)O)cc2)cc1C(=O)N[C@@H]1[C@H]2CC[C@H](C2)[C@@H]1C(=O)Nc1cccc(S(=O)(=O)C(F)(F)F)c1 . Report value.
Output line: 7.48

Input line: With human RXFP1 (Homo sapiens, UniProt Q9HBX9) as the test system, provide measured pEC50 for this molecule: COc1cc(F)c(O[C@H]2CC[C@@H](C(=O)O)CC2)cc1C(=O)N[C@@H]1[C@@H]2C[C@@H]([C@@H](O)[C@H]2O)[C@@H]1C(=O)Nc1cccc(S(=O)(=O)C(F)(F)F)c1
Output line: 5.16

Input line: Name the recorded pEC50 of COc1cc(F)c(O[C@H]2CC[C@@](C)(C(=O)O)CC2)cc1C(=O)N[C@@H]1C[C@H](OC)C[C@@H]1C(=O)Nc1cccc(S(=O)(=O)C(F)(F)F)c1 (stereo in doubt) , assay system human RXFP1 (Homo sapiens, UniProt Q9HBX9).
Output line: 6.27

Input line: Report the value of pEC50 obtained on human RXFP1 (Homo sapiens, UniProt Q9HBX9) for COc1cc(F)c(-c2ccc(C[C@H](C(=O)O)N(C)C)cc2)cc1C(=O)N[C@@H]1[C@H]2CC[C@H](C2)[C@@H]1C(=O)Nc1cccc(S(=O)(=O)C(F)(F)F)c1 .
Output line: 7.11

Input line: Supply pEC50 measured with human RXFP1 (Homo sapiens, UniProt Q9HBX9) for COc1cc(F)c(O[C@H]2CC[C@@H](C(=O)O)CC2)cc1C(=O)N[C@@H]1[C@H]2CC[C@H](C2)[C@@H]1C(=O)Nc1cccc(C(C)C)c1 .
Output line: 6.66
